Target: Polyunsaturated fatty acid 5-lipoxygenase (Rattus norvegicus)
Sequence (P12527 whole entry): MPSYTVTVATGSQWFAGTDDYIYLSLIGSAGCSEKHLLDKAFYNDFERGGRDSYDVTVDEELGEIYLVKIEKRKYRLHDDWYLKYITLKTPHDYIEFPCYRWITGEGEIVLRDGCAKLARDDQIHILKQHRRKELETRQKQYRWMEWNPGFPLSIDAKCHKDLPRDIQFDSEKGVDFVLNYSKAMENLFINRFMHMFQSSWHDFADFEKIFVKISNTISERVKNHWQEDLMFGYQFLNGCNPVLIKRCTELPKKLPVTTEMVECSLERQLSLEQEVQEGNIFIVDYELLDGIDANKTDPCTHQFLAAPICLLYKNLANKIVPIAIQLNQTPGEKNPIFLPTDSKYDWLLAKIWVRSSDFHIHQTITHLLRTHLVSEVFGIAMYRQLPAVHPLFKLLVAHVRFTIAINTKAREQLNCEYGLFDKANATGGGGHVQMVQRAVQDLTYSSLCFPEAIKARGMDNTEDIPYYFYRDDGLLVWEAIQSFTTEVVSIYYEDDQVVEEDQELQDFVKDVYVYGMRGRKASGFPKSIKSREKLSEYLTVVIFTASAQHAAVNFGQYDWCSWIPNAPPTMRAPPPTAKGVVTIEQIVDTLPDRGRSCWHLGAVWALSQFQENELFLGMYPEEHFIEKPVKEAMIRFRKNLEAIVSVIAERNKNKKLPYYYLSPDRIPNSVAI
Assay: In vitro inhibition of RBL-1 5-lipoxygenase; Value ranges from 1.0-1.7
Assay type: cell-based
VALUE TYPE: pIC50
Give bare numbers, as −log10 of the molar value.

Recorded pIC50 for Cc1ccc(O)c2[nH]c(-c3ccc(N(C)C)cc3)nc12 , please?
5.89
